- Experimental Protocol: NCI Yeast Anticancer Drug Screen. Data for the rad50 strain (AID 155);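 also: 0% = growth of vehicle-only cultures of the same strain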
- Reported Conditions: S. cerevisiae rad50 strain growth inhibition; at 33.0 µM
The panel holds about 79,000 compounds, 15% with a hit somewhere; the sample as a whole holds those more often. Active and inactive are the calls of the source. Rule as the data show it: active = growth inhibition above about 70%; inactive = the rest.
Outcome codes: T (active), F (inactive)

Compound | Class Label
O=C1c2ccccc2-c2ccc(N=Cc3ccccc3)cc21 | F
COc1cccc(/C=C2\S/C(=N/Nc3nc(-c4ccc([N+](=O)[O-])cc4)cs3)NC2=O)c1O | T
CCOc1ccc2nc3ccccc3c(N)c2c1 | T
CC(C)(CN1CCCCC1)C(=O)CC(SCCS(=O)(=O)O)c1ccccc1 (stereo unspecified) | F
O=C(/C=C/c1ccsc1)c1cccs1 | F
COc1ccc2c3c1OC(C)C31CC(=O)CCC1CC2 (stereo unspecified) | F
COc1cc(C2C3=C(COC3=O)Oc3cc4c(cc32)OCO4)cc(OC)c1O (stereo unspecified) | T
CCC(/C=C/c1ccccc1)=N\Nc1ccc(Cl)cc1 | T
O=C1C=CC(=Nc2cccc3c2-c2ccccc2C3=O)O1 | T
CCS(=O)(=O)Nc1ccc(Nc2c3ccccc3nc3ccccc23)c(OC)c1 | T
C=COC(=O)N[C@H]1CCc2cc(OC)c(OC)c(OC)c2-c2ccc(SC)c(=O)cc21 | F

---

- Experimental Protocol: NCI Yeast Anticancer Drug Screen. Data for the sgs1 mgt1 strain (AID 161);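 also: 0% = growth of cultures given vehicle only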
- Reported Conditions: S. cerevisiae sgs1 mgt1 strain, at 50.0 µM (retest, dose inferred, filed as 5.0), hits give high values
- Protocol: Growth inhibition of yeast strains with defined genetic alterations is measured as a screen for potential anti-cancer activity. Selected strains with alterations in DNA damage repair or cell cycle control were exposed to compounds and growth inhibition was measured relative to vehicle treated controls. The strain used in this assay is sgs1 mgt1
About 79,000 compounds went through this panel and 15% of them were active in at least one assay; those are over-represented in the sample as a whole.

Compound | Value Units | growth inhibition
O=CC1(F)CC1(c1ccccc1)c1ccccc1 (stereo unspecified) | % | 53
O=C1NC(c2cccc(OCc3ccccc3)c2)Nc2ccccc21 (stereo unspecified) | % | 35
OC1(C#CI)CCCCC1 | % | 97
Oc1c2c(c(O)c3ccccc13)C1(N=N2)c2ccccc2Oc2ccccc21 | % | 98
NC(N)=NC(N)=Nc1ccccc1 (tested in a mixture with another compound) | % | -6
CCCCCCNCCCNc1c2ccccc2nc2cccc([N+](=O)[O-])c12 | % | 97
CC1(C)OC(=O)C(=Cc2ccc([N+](=O)[O-])s2)C(=O)O1 | % | 100
CN1CCN(C(=O)c2cccc3cccc(C(=O)O)c23)CC1 | % | 88
CCCCCCC=C(C(=O)OCC)C(=O)OCC | % | 68
COc1ccc2nc3cccc([N+](=O)[O-])c3c(NCCNCCN(C)C)c2c1 | % | 93
CCOP(=O)(OCC)/C(C#N)=C/c1cccc(Oc2ccccc2)c1 | % | 96

---

- Experimental Protocol: NCI Yeast Anticancer Drug Screen. Data for the mgt1 strain (AID 153)
- Reported Conditions: S. cerevisiae mgt1 mutant growth inhibition; at 100.0 µM; hits give high values
- Experimental: Growth inhibition of yeast strains with defined genetic alterations is measured as a screen for potential anti-cancer activity. Selected strains with alterations in DNA damage repair or cell cycle control were exposed to compounds and growth inhibition was measured relative to vehicle treated controls. The strain used in this assay is mgt1
Compounds without any hit were thinned out: in the full panel of roughly 79,000, 15% have a hit. Calls of active or inactive are those of the source. Cut-off read from the data, not from the text of the source: active = growth inhibition above about 70%; inactive = the rest.
Reported Endpoint: growth inhibition

Entry Smiles | Endpoint Result
S=C1C(=Nc2ccccc2)N(c2ccccc2)/C(=N\c2ccccn2)N1c1ccccc1 | 97% (active)
CC(C)Cc1ncc(CCCN=C(N)N)[nH]c1=O | -6% (inactive)
CC(C)=CCC/C(C)=C/CN1C(=O)C=CC1=O | 100% (active)
C/C(=N/NC(=S)Nc1ccccc1C)c1ccccn1 | -5% (inactive)
Cc1ccccc1NC(=O)c1c(C)oc2c1C(=O)c1ccccc1C2=O | 93% (active)
COc1ccc2cc3c4cc5c(cc4cc[n+]3cc2c1OC)OCO5 | 97% (active)
O=C(O)C(=Cc1ccc(-c2ccccc2)cc1)C(=O)O | 90% (active)
CNC(=O)OCc1c2ccncc2c(C)c2c1[nH]c1ccccc12 | 55% (inactive)
O=C(O)c1c2ccc(Cl)cc2nc2[nH]c(=O)[nH]c(=O)c12 | 17% (inactive)
CCCCCCCC/C=C\CCCCCCCCN | 98% (active)
CCCCCCCN(CCCCCCC)CC(=O)c1ccc2cc(Cl)c3ccccc3c2c1 | 95% (active)
Nc1cc2c(cc1N)-c1ccccc1C2=O | 95% (active)

Ref: PubChem BioAssay (NCI)
